# assaySystem: T1, Human ROR1-ECD-his (Acro Biosystems RO1-H522y) (human, UniProt Q01973 30-406)
# T1 construct: extracellular domain; bought protein; also called hROR1-ECD-his; hu-ROR1-ECD-his
# T1 sequence (Q01973 30-406): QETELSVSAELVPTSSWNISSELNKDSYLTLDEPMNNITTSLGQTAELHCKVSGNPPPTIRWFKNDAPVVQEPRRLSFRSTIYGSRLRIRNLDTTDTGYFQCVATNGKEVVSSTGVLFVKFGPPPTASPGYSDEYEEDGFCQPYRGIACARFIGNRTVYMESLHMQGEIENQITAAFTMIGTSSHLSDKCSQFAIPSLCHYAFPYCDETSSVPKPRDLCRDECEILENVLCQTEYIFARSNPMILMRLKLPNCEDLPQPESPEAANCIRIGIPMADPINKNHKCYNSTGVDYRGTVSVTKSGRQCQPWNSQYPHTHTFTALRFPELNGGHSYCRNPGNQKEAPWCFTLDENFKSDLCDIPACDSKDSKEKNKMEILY
# protocolText: BLI, ROR1-His on HIS1K sensor, antibody in solution
observable: pKd
Answer as the number alone; pKd is minus log10 of concentration in mol/L.

Consider the following illustrative entries.
*Q* Which measured pKd value corresponds to PR303201 (antibody, human IgG1, V domains shown, HCAb (heavy chain-only, human IgG1 Fc), no light chain) VH: EVQLLESGGGLVQPGGSLRLSCAASGFTFSGNAMSWVRQAPGKGLEWVSAISGSGDKTYYAASVKGRFTISRDNSNNTVYLQMNSLRAEDTAVYYCEKGAFRTTMDYWGQGTLVTVSS ?
*A* 8.31

*Q* For PR303199 (antibody, human IgG1, V domains shown, HCAb (heavy chain-only, human IgG1 Fc), no light chain) VH: EVQLVESGGGLVKPGGSLRLSCAASGFTFSDYYMSWIRQAPGKGLEWIAYISSSGSTIYYADSVKGRFTISRDNAKNSLYLQMNSLRAEDTAIYYCAREYYGSENYDHFDYWGQGTLVTVSS then?
*A* 7.85

*Q* For PR303147 (antibody, human IgG1, V domains shown, HCAb (heavy chain-only, human IgG1 Fc), no light chain) VH: EVQLVESGGGLVQPGGSLRLSCAASGFTFSNFWMYWVRQAPGKGLVWVSRINSDGSSTNYADSVKGRFTISRDNAKNTLYLQMNSLRVEDTAVYSCAREGSGWYEDFDYWGQGTLVTVSS then?
*A* 7.95

*Q* For PR303191 (antibody, human IgG1, V domains shown, HCAb (heavy chain-only, human IgG1 Fc), no light chain) VH: EVQLLESGGGLVQPGGSLRLSCAASGFIFGSYAMSWVRQAPGKGLEWVSGISGTGGNTYYADSVKGRFTISRDNSKNTLYLQMNSLRAEDTAVYFCERGITIHGVVIIPPDYRGQGTLVTVSS then?
*A* 10.40

*Q* For PR303145 (antibody, human IgG1, V domains shown, HCAb (heavy chain-only, human IgG1 Fc), no light chain) VH: QVQLVESGGGLVKPGGSLRISCAASGFTFSNYNMSWIRQAPGKGVEWVSHISGSGRTIYYAESVKGRFTISRDNAKNSLYLQMNSLRAEDTAMYYCARDLSSGWYEDFDYWGQGTLVTVSS then?
*A* 7.95

---
*Q* Which measured pKd value corresponds to PR303155 (antibody, human IgG1, V domains shown, HCAb (heavy chain-only, human IgG1 Fc), no light chain) VH: EVQLVESGGGLVKPGGSLRLSCAASGFTLSDYYMSWIRQAPGKGLEWISYISSNGSTIYYADSVKGRFTISRDNARNSLYLQMNSLRAEDTALYYCARDVSSGWYEDFDYWGQGTLVTVSS ?
*A* 8.17

*Q* For PR303189 (antibody, human IgG1, V domains shown, HCAb (heavy chain-only, human IgG1 Fc), no light chain) VH: EVQLVESGGGLVKPGGSLRLSCAASGFNLSDSYMSWIRQAPGKGLEWVSCISSSGSTIYYADSVKGRFTVSRDNAKNSLYLQMNHLRAEDTALYYCARDCVIGIRDDSDIWGQGTMVTVSS then?
*A* 9.21

Sourced from patent US20250257130A1
